Reference for the values: patent US20150307520A1

system_tested: p110β/p85α (Homo sapiens, UniProt P42338)
Sequence (P42338 whole entry, one chain of several): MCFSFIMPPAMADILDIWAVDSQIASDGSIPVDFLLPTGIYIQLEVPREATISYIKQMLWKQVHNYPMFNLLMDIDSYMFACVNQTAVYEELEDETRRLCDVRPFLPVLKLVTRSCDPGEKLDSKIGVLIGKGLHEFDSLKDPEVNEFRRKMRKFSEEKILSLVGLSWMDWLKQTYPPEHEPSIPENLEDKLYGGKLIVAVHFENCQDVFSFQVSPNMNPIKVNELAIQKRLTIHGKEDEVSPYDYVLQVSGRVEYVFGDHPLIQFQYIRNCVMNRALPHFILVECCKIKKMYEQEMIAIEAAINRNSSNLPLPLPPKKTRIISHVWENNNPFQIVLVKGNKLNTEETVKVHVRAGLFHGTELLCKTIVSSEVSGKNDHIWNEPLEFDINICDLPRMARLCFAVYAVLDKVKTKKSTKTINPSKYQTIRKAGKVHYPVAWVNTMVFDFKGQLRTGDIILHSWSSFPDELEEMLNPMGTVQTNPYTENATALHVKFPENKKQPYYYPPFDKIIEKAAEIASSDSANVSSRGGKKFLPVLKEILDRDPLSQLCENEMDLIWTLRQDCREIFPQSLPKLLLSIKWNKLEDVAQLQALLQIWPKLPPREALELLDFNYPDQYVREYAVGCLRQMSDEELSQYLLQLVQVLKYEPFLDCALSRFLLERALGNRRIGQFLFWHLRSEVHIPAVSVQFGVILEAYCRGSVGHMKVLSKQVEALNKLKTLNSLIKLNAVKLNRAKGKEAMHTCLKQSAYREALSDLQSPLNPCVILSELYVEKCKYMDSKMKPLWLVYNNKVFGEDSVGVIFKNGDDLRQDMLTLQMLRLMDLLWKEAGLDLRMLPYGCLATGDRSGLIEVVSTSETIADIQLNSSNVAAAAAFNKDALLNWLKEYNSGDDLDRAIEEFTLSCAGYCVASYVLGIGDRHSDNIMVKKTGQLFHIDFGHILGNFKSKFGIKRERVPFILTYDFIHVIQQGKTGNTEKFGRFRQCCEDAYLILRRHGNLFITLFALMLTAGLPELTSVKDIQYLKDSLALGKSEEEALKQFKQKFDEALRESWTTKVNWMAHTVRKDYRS
protocol_text: Transcreener KINASE Assay, kinase inhibition of p110β/p85α
Type: biochemical
condition_info: 1 uM test compound
# PI3Kβ IH % @ 1 uM per entry
Write it as a number; the unit % goes unstated.

>>> measured("Nc1ncc(F)c(N2CCC[C@H]2c2nn3ccc(Cl)c3c(=O)n2-c2ccccc2)n1")
32.8

Exercise: For the compound N#Cc1cnc(N)nc1N1C[C@@H](F)C[C@H]1c1nn2ccc(Cl)c2c(=O)n1-c1ccccc1 , what PI3Kβ IH % @ 1 uM is on record?
Key: 81.5

Exercise: Try this compound too: Nc1ncc(C(F)(F)F)c(N2CCC[C@H]2c2nn3ccc(Cl)c3c(=O)n2-c2ccccc2)n1
Key: 4.4

* * *

system_tested: p110δ/p85α (Homo sapiens)
protocol_text: Transcreener KINASE Assay, kinase inhibition of p110δ/p85α
Assay type: biochemical
condition_info: 1 uM test compound
metric: PI3Kδ IH % @ 1 uM (%)
Write it as a number; the unit % goes unstated.

Example entries begin here.
>>> measured("CC(=O)Nc1c[nH]c2ncnc(N3CCC[C@H]3c3nn4ccc(Cl)c4c(=O)n3-c3ccccc3)c12 [Compound 307]")
98.9
>>> measured("O=c1c2c(Cl)ccn2nc([C@@H]2CCCN2c2ncnc3[nH]cc(C4=NCCO4)c23)n1-c1ccccc1 [Compound 303]")
97.2
>>> measured("Nc1nc2c(c(N3CCC[C@H]3c3nn4ccc(Cl)c4c(=O)n3-c3ccccc3)n1)CCC2 [Compound 246]")
84.6
>>> measured("CC(Nc1ncnc2[nH]cc(C#N)c12)c1cc2ccc(Cl)n2c(=O)n1-c1ccccc1 (stereo not drawn) [Compound 124]")
98.0
>>> measured("CC(=O)c1c(N)nc(N)nc1N1C[C@H](C)C1c1nn2ccc(Cl)c2c(=O)n1-c1cccc(F)c1 (stereo partly drawn) [Compound 493]")
99.7

Here's the next entry for you.
Exercise: For the compound Nc1ncc([N+](=O)[O-])c(N2CC[C@H]2c2nn3ccc(Cl)c3c(=O)n2-c2ccccc2)n1 [Compound 282] , what PI3Kδ IH % @ 1 uM is on record?
Key: 94.9

* * *

system_tested: PI3Kγ (Mus musculus, UniProt Q9JHG7)
Sequence (Q9JHG7 whole entry): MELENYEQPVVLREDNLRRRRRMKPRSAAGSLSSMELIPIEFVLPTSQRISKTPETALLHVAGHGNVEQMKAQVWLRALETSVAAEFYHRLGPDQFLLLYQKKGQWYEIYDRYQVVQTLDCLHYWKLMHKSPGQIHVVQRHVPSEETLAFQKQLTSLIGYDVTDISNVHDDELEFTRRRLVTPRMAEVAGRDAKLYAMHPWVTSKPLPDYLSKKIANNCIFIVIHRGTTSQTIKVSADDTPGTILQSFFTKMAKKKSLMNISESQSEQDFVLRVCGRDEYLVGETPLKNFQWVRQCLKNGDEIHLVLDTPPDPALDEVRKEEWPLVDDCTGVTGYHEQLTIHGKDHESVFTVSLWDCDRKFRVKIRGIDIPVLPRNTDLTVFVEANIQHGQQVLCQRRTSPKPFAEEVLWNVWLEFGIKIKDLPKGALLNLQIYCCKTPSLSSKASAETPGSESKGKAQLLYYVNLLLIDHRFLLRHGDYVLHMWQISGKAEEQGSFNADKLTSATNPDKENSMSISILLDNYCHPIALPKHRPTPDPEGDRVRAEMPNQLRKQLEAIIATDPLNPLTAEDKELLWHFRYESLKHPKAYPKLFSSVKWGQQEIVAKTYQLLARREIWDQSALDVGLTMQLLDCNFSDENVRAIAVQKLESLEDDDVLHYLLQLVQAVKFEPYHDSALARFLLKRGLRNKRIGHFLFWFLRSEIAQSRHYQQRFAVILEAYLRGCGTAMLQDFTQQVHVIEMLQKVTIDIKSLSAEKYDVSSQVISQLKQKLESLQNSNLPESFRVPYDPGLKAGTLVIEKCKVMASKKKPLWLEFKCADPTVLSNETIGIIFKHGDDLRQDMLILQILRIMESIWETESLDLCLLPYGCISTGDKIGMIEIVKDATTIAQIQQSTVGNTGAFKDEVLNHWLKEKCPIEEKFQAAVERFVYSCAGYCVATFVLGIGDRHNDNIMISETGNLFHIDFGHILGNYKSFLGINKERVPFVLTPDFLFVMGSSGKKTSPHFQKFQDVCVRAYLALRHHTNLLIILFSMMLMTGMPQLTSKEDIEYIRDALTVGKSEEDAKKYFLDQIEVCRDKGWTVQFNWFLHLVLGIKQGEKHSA
protocol_text: Acumen Assay - Raw264.7 p-AKT Assay (C5a stimulated)
condition_info: Raw264.7 macrophage cells, compound 30 min, stimulated with 10 nM C5a for 5 min, p-AKT (Ser473) readout; read-out: PI3Kγ cell-C5a Raw264.7 IC50
# pIC50 per entry
Would you please state pIC50, meaning minus log10 of the concentration in mol/L, as a bare number?

Example entries begin here.
>>> measured("CC(=O)c1c(N)nc(N)nc1N1CCC1c1nn2ccc(Cl)c2c(=O)n1-c1ccccc1 (stereo not drawn) [Compound 492]")
7.92
>>> measured("CC(=O)c1cnc(N)nc1N1C[C@H](C)[C@H]1c1nn2ccc(Cl)c2c(=O)n1-c1ccccn1 [Compound 473]")
7.44

Here's the next entry for you.
Exercise: For the compound C[C@H]1CN(c2ncnc3[nH]cc(C#N)c23)C1c1nn2ccc(Cl)c2c(=O)n1-c1ccccc1 (stereo partly drawn) [Compound 235] , what pIC50 is on record?
Key: 7.15

* * *

system_tested: p110δ/p85α (Homo sapiens, UniProt O00329)
Sequence (O00329 whole entry): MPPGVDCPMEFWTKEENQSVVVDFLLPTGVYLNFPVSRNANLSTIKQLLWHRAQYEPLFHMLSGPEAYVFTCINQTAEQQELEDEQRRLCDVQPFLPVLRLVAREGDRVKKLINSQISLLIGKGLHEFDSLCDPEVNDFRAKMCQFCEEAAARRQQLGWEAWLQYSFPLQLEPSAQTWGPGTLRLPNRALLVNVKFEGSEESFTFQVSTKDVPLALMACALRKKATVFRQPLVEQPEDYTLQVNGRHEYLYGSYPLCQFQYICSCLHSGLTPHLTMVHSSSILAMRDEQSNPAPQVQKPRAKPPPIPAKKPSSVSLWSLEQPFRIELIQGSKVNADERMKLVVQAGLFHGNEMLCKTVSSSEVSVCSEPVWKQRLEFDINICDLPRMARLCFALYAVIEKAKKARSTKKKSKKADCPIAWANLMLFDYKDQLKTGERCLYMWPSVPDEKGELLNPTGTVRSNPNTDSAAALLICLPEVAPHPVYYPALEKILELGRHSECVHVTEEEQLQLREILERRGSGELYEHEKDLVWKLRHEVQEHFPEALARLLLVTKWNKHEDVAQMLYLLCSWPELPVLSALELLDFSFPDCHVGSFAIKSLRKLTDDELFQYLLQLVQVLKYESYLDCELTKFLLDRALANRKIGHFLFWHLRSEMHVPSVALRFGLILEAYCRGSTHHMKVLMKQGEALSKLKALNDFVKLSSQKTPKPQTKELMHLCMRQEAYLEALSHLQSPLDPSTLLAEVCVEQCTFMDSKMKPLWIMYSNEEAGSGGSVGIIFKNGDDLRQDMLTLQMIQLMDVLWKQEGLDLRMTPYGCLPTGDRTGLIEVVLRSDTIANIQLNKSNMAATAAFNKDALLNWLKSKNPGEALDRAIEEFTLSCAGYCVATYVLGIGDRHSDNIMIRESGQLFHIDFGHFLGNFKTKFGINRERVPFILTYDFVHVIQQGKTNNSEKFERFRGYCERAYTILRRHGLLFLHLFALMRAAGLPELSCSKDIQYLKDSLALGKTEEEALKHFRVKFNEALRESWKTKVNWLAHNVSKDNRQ
Sequence (P27986 whole entry partner): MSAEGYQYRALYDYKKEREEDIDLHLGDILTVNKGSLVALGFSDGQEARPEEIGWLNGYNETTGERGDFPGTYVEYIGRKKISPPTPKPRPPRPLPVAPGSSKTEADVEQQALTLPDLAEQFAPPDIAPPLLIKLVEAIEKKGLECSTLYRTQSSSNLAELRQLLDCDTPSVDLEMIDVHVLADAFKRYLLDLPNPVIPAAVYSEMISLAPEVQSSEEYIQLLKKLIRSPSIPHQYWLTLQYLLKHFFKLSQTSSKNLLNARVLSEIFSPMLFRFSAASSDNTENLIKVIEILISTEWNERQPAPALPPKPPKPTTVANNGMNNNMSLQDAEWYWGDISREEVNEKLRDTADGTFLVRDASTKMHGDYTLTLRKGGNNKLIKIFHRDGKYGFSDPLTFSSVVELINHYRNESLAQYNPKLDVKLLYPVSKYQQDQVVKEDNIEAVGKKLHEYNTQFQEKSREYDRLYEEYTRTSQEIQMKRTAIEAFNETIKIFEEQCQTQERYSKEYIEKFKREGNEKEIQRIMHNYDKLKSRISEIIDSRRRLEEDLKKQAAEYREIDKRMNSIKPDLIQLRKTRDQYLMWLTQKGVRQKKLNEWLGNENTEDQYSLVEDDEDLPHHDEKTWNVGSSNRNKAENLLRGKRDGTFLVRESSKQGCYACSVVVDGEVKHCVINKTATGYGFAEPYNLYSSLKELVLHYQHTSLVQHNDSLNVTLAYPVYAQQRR
protocol_text: Transcreener KINASE Assay, kinase inhibition of p110δ/p85α
condition_info: read-out: PI3Kδ IC50
metric: IC50

>>> measured("CC(Nc1ncnc2[nH]cnc12)c1cn2ccc(-c3cnn(C)c3)c2c(=O)n1-c1ccccc1 (stereo not drawn)")
"244 nM"
>>> measured("N#Cc1c[nH]c2ncnc(N3C[C@@H](O)C[C@H]3c3nn4ccc(Cl)c4c(=O)n3-c3ccccc3)c12")
"1 nM"
>>> measured("N#Cc1c[nH]c2ncnc(N3CCOCC3c3nn4ccc(Cl)c4c(=O)n3-c3ccccc3)c12 (stereo not drawn)")
"5 nM"

Exercise: For the compound N#Cc1ncc(-c2c[nH]c3ncnc(N4CC[C@H]4c4nn5ccc(F)c5c(=O)n4-c4ccccc4)c23)cn1 , what IC50 is on record?
Key: 0.5 nM

Exercise: Try this compound too: CC(=O)c1c(N)nc(N)nc1N1C[C@H](C)C1c1nn2ccc(Cl)c2c(=O)n1-c1cccc(F)c1 (stereo partly drawn)
Key: 6 nM

* * *

system_tested: p110α/p85α (Homo sapiens, UniProt P42336)
Sequence (P42336 whole entry, one chain of several): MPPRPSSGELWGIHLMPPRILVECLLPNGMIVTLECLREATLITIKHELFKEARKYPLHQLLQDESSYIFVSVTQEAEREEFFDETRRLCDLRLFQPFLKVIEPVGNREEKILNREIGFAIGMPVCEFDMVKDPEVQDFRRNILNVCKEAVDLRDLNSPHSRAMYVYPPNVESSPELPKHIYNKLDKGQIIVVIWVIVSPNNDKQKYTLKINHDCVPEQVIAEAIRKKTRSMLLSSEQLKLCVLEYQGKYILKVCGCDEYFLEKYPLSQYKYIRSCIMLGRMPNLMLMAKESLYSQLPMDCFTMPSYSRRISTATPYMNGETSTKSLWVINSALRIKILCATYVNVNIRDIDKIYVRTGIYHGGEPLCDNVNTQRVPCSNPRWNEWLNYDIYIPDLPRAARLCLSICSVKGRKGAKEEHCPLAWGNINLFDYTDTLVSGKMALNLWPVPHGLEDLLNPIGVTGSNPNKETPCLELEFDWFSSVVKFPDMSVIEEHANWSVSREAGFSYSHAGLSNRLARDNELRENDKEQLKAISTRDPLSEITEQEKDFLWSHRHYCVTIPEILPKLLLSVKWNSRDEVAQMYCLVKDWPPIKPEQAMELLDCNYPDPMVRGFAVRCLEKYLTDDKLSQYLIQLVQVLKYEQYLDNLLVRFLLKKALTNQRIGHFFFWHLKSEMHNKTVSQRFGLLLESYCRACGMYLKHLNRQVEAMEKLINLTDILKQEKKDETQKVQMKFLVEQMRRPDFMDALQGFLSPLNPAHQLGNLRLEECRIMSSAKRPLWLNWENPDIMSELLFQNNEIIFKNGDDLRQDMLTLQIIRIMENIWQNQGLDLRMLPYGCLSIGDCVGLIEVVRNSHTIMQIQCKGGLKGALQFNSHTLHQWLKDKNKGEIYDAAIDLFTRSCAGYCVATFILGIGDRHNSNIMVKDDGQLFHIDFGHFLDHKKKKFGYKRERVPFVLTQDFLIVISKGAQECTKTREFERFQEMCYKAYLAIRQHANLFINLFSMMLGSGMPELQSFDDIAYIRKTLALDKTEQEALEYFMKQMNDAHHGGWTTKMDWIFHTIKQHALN
protocol_text: Transcreener KINASE Assay, kinase inhibition of p110α/p85α
Assay type: biochemical
condition_info: 1 uM test compound
Entry class follows PI3Kα IH % @ 1 uM: low = under 10%, intermediate = from 10% up to 40%, high = 40% and over

Some solved cases for reference:
>>> qualitative_label("N#Cc1c[nH]c2ncnc(N3CCC[C@H]3c3nn4ccc(Cl)c4c(=O)n3-c3ccccc3)c12 [Compound 25]")
"high"
>>> qualitative_label("CC(C)Cn1c([C@@H]2CCCN2c2ncnc3[nH]cc(C#N)c23)nn2ccc(Cl)c2c1=O [Compound 64]")
"intermediate"

Exercise: Form: Item = N#Cc1c[nH]c2ncnc(N3CCC[C@H]3c3nn4ccc(Cl)c4c(=O)n3Cc3ccccc3)c12 [Compound 62] ; Class = ?
Key: low

Exercise: Try this compound too: Cc1ccn2nc([C@@H]3CCCN3c3ncnc(N)c3C#N)n(-c3ccccc3)c(=O)c12 [Compound 189]
Key: high

Exercise: Try this compound too: N#Cc1c[nH]c2ncnc(N3CC[C@H]3c3nn4ccc(Cl)c4c(=O)n3-c3ccccc3)c12 [Compound 28]
Key: low

Exercise: Try this compound too: CCC(Nc1ncnc(N)c1C#N)c1cn2ccc(Cl)c2c(=O)n1-c1cccc(F)c1 (stereo not shown) [Compound 86]
Key: intermediate

Exercise: Try this compound too: N#Cc1c[nH]c2ncnc(N3CCC[C@H]3c3nn4ccc(Cl)c4c(=O)n3Cc3cccnc3)c12 [Compound 66]
Key: high

Exercise: Try this compound too: CC(Nc1ncnc2[nH]cnc12)c1cc2ccc(Cl)n2c(=O)n1-c1cccc(F)c1 (stereo not shown) [Compound 127]
Key: low

Exercise: Try this compound too: Cc1ccn2cc(C(C)Nc3ncnc4[nH]cc(C#N)c34)n(-c3ccccc3)c(=O)c12 (stereo not shown) [Compound 91]
Key: high

Exercise: Try this compound too: C[S+]([O-])c1c[nH]c2ncnc(N3CCC[C@H]3c3nn4ccc(Cl)c4c(=O)n3-c3ccccc3)c12 (stereo partly shown) [Compound 186]
Key: intermediate

Exercise: Try this compound too: CC(=O)c1c[nH]c2ncnc(N3C[C@@H](F)C[C@H]3c3nn4ccc(Cl)c4c(=O)n3-c3ccccc3)c12 [Compound 268]
Key: intermediate

Exercise: Try this compound too: Nc1ccc(-c2c[nH]c3ncnc(N4CC[C@H]4c4nn5ccc(Cl)c5c(=O)n4-c4ccccc4)c23)cn1 [Compound 101]
Key: high

Exercise: Try this compound too: O=c1c2cccn2nc([C@@H]2CCN2c2ncnc3[nH]cnc23)n1-c1ccccc1 [Compound 7]
Key: low

Exercise: Try this compound too: N#Cc1c[nH]c2ncnc(N3C[C@H](O)C[C@H]3c3nn4ccc(Cl)c4c(=O)n3-c3ccccc3)c12 [Compound 70]
Key: high

Exercise: Try this compound too: C[S@@+]([O-])c1c[nH]c2ncnc(N3CCC[C@H]3c3nn4ccc(Cl)c4c(=O)n3-c3ccccc3)c12 [Compound 383]
Key: intermediate

Exercise: Try this compound too: C[S+]([O-])c1c[nH]c2ncnc(N3CCC[C@H]3c3nn4ccc(Cl)c4c(=O)n3-c3ccccc3)c12 (stereo partly shown) [Compound 188]
Key: intermediate

Exercise: Try this compound too: N#Cc1c[nH]c2ncnc(N3CCC[C@H]3c3nn4ccc(Cl)c4c(=O)n3Cc3ccccn3)c12 [Compound 65]
Key: high

Exercise: Try this compound too: N#Cc1c[nH]c2ncnc(N3CC[C@H]3c3nn4cccc4c(=O)n3-c3ccccc3)c12 [Compound 6]
Key: low

* * *

# PI3Kδ IH % @ 1 uM per entry
system_tested: p110δ/p85α (Homo sapiens, UniProt O00329)
protocol_text: Transcreener KINASE Assay, kinase inhibition of p110δ/p85α
Assay type: biochemical
condition_info: 1 uM test compound
Write it as a number; the unit % goes unstated.

>>> measured("Nc1nc(N2CCC[C@H]2c2nn3ccc(Cl)c3c(=O)n2-c2ccccc2)c2cccn2n1")
71.9
>>> measured("CN(C)CCn1c([C@@H]2CCCN2c2ncnc3[nH]cc(C#N)c23)nn2ccc(Cl)c2c1=O")
97.0

Exercise: For the compound Nc1nc2c(c(N3CCC[C@H]3c3nn4ccc(F)c4c(=O)n3-c3ccccc3)n1)C(=O)CCN2 , what PI3Kδ IH % @ 1 uM is on record?
Key: 99.3

Exercise: Try this compound too: C=Cc1ccn2nc([C@@H]3CCN3c3ncnc4[nH]cc(C#N)c34)n(-c3ccccc3)c(=O)c12
Key: 80.4

Exercise: Try this compound too: O=c1c2c(Cl)ccn2nc([C@@H]2C[C@H](O)CN2c2ncnc3[nH]cnc23)n1-c1ccccc1
Key: 97.1

Exercise: Try this compound too: N#Cc1c[nH]c2ncnc(N3CC[C@H]3c3nn4ccc(Cl)c4c(=O)n3CC(F)F)c12
Key: 73.6
